- measurement target: LC3B (1-125) (Homo sapiens, UniProt Q9GZQ8)
- Construct: GST (N, cleaved yes); made in house
- method description: Protein thermal shift assay
- Format: binding
- measurement context: Table 2, comparative compounds; protein 4 μM, compound 40 μM
endpoint: ΔT (melting temperature shift) (°C)
Answers are plain numbers, in °C.

Below, each entry is followed by its recorded ΔT (melting temperature shift) result.
CC1=CCC(C(=O)O)C(C(=O)Nc2ccc(-c3nc4ccc(C)cc4s3)cc2)C1 (centres unmarked) [compound 1, reference compound]	0
CCOc1c(I)cc(/C=N\Nc2ccc(C(=O)O)cc2)cc1OC [compound 3, reference compound]	2.1
Cc1ccc2c(C)c(C(=O)Nc3ccc(S(=O)(=O)Nc4onc(C)c4C)cc3)oc2c1 [compound 6, reference compound]	0
Cc1cc(NS(=O)(=O)c2ccc(NC(=O)c3ccc(C(=O)Nc4ccc(S(=O)(=O)Nc5cc(C)on5)cc4)cc3)cc2)no1 [compound 4, reference compound]	1.8

Let's switch to this compound now.
The measured ΔT (melting temperature shift) associated with Cc1ccc(C(=O)O)c(C(=O)Nc2ccc(-c3nc4ccc(C)cc4s3)cc2)c1 [compound 2, reference compound] reads 0

====

For each entry below, report its ΔT (melting temperature shift) value.
- measurement target: LC3B (1-125) (Homo sapiens)
- Construct: GST (N, cleaved yes); made in house
- method description: Protein thermal shift assay
- Format: binding
- measurement context: Table 1; protein 4 μM, compound 40 μM
One number for each entry, in °C.

Cc1ccc(NC(=O)CN2CCN(CCNC=C3C(=O)CC(c4ccccc4)CC3=O)CC2)cc1 (stereo not shown)	10.21
NC=C1C(=O)CC(c2ccccc2)CC1=O (stereo not shown)	2.87
O=C1CC(c2cccc3[nH]ccc23)CC(=O)C1=CO (stereo not shown)	13.4

Let's switch to this compound now.
The measured ΔT (melting temperature shift) associated with COc1ccc(C2CC(=O)C(=CN(C)C)C(=O)C2)cc1 (stereo not shown) reads 10.82

====

- measurement target: GST-LC3B (Homo sapiens, UniProt Q9GZQ8)
- Construct: This fusion protein was used directly in the fluorescence polarization assay; made in house
- method description: Fluorescence polarization (FP) assay, GST-LC3B with FITC-labeled peptide
- Type: binding
- measurement context: Table 1; GST-LC3B 180 nM, FITC-labeled peptide 18 nM, 25° C.
# if measured IC50 < 5 µM: T  # else: F

CCNC(=S)N1CCN(CCNC=C2C(=O)CC(c3ccccc3)CC2=O)CC1 (stereo not drawn)	F

Is 5 µM strictly greater than the molecule's reported IC50? molecule: COc1ccc(C2CC(=O)C(=CN(C)C)C(=O)C2)cc1 (stereo not drawn)
T

Is 5 µM strictly greater than the molecule's reported IC50? molecule: O=C1CC(c2cccc3[nH]ccc23)CC(=O)C1=CO (stereo not drawn)
T

Is 5 µM strictly greater than the molecule's reported IC50? molecule: NC=C1C(=O)CC(c2ccccc2)CC1=O (stereo not drawn)
F
